- Test system: Saccharomyces cerevisiae
- Experiment Summary: protein stability index of tFT-peptide fusion (C-terminal peptide) (PSI (0-1 scale)); higher = more stable (slower turnover)
- Assay Context: genetic background: das1 deletion; temperature: 30 C
We begin with a simple list: items and their reported protein stability index.

Sequence Record | protein stability index
GWRGVVLVFVLV | 0.28
PHVSALSRDPES | 0.649
VSCYYVFLIPFW | 0.414
SFVCFSYYIVNI | 0.377
TLKRCFRWCRTT | 0.672
CWYVCSFWPYVV | 0.548
MFFSWVLSISLT | 0.0335
FTLFFVASVLDL | 0.378
GHHLRVRVILTA | 0.311
VGVSCLVFFGVV | 0.511
GCCFVCSVFWWG | 0.348
FYFMGFFFGLGM | 0.519
QVLISLYVHGYF | 0.453
PFVATRVSCFLT | 0.626
RSFNVGLELLVW | 0.295
FGGFYGRRVLII | 0.544
KSTLVRILVFHV | 0.458
YVLLDFFFFFLV | 0.24
FILFSEMFASSV | 0.265

* * *

We begin with a simple list: items and their reported protein stability index.
- System: Saccharomyces cerevisiae
- Experiment Summary: protein stability index of tFT-peptide fusion (C-terminal peptide) (PSI (0-1 scale)); higher = more stable (slower turnover)
- Assay Context: genetic background: das1 deletion; temperature: 30 C

Sequence Record | protein stability index
DKSCIDIRSIIH [YAP5 C-terminal 12 aa] | 0.706
ANLVYMKADVFC [HTD2 C-terminal 12 aa] | 0.581
NRAKGKVVVKMK [YIM1 C-terminal 12 aa] | 0.69
GYCFEFTLYNRK [DFR1 C-terminal 12 aa] | 0.724
EHKLGNTKYFED [ARP5 C-terminal 12 aa] | 0.693
GETIRVNYGSTQ [YJR154W C-terminal 12 aa] | 0.685
NVGYMHTQPQQR [TCO89 C-terminal 12 aa] | 0.71
CPLCRSEIPFRR [RKR1 C-terminal 12 aa] | 0.75
VTQILYTPIESS [SIP2 C-terminal 12 aa] | 0.679
YHKLVDEVFQHL [MPA43 C-terminal 12 aa] | 0.711
WRQEYPGVDEFF [PRM8 C-terminal 12 aa] | 0.742
GKSSKKKNRSRK [SSH4 C-terminal 12 aa] | 0.726

* * *

- System: Saccharomyces cerevisiae
- Experiment Summary: protein stability index of tFT-peptide fusion (C-terminal peptide) (PSI (0-1 scale)); higher = more stable (slower turnover)
- Assay Context: genetic background: wild type; temperature: 30 C
Quantity Measured: protein stability index

Sequence Record | Quantity Measured | Recorded Result
APLLTRRLPTAH | protein stability index | 0.785
RARGGGAEPGRN | protein stability index | 0.685
PSPALPVHPPLQ | protein stability index | 0.687
RKMNEEKEIRRQ | protein stability index | 0.657
SSRPTLLSPPPA | protein stability index | 0.706
PLSPPPPSPPFA | protein stability index | 0.743
PHPPRPPCPPIL | protein stability index | 0.74
HREQSTILDLKE | protein stability index | 0.715
REDAKLGYGKKK | protein stability index | 0.637
FLTSPFIITRMP | protein stability index | 0.593
